Parameter log10 of IC50, tested on Receptor tyrosine-protein kinase erbB-2 (Homo sapiens, UniProt P04626), listed per item.
Sequence (P04626 whole entry): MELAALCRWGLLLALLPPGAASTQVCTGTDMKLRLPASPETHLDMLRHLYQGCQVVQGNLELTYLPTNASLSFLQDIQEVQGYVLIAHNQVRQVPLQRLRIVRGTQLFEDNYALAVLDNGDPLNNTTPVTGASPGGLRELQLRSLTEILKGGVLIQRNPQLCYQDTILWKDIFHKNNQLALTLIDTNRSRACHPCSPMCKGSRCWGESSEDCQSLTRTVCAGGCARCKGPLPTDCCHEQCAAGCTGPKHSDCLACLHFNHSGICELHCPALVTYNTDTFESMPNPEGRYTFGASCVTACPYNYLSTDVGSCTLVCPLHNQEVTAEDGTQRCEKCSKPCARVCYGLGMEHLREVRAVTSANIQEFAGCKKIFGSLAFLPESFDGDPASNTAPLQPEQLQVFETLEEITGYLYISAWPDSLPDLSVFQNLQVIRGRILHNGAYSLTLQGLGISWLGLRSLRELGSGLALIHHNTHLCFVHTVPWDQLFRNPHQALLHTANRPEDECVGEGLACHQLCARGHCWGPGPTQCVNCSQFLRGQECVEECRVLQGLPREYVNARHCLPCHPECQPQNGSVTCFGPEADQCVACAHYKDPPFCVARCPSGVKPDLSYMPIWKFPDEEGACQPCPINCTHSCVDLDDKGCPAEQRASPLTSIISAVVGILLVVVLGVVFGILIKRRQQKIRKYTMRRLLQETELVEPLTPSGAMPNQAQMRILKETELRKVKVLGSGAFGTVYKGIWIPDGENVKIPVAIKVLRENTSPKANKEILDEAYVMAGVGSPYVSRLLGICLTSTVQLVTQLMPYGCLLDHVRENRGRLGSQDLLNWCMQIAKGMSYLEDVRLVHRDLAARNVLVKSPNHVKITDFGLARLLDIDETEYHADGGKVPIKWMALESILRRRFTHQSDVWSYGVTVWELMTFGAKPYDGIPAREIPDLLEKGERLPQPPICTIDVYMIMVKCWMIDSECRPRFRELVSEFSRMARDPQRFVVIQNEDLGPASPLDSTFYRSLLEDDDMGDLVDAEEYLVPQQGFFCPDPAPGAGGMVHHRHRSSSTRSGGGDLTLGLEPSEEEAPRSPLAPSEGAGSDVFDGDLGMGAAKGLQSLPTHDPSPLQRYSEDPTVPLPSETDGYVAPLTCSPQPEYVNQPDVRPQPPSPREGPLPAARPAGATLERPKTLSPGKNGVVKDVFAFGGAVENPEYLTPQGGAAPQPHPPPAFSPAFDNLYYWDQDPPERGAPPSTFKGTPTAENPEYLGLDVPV
Would you kindly interpret these values as log10 of IC50 expressed in nM?

• O=C(NO)[C@H]1C[C@@H](OC(=O)N2CCCC2)CN[C@@H]1C(=O)N1CC=C(c2ccccc2)CC1 = 1.48
• O=C(NO)[C@H]1C[C@H](OC(=O)N2CCCC2)CN[C@@H]1C(=O)N1CCN(c2ccccc2)CC1 = 0.58
• CN1C[C@@H](OC(=O)N2CCCC2)C[C@H](C(=O)NO)[C@H]1C(=O)N1CCN(c2ccccc2)CC1 = 1.06
• O=C(NO)[C@H]1CC(CC(=O)N2CCCC2)CN[C@@H]1C(=O)N1CC[C@H](c2ccccc2)C1 (stereo partly specified) = 0.75
• CC(C)C(=O)N(C)C1CN[C@H](C(=O)N2CC=C(c3ccccc3)CC2)[C@@H](C(=O)NO)C1 (stereo partly specified) = 1.19
• O=C(NO)[C@H]1CC(OC(=O)N2CCCC2)CN[C@@H]1C(=O)N1Cc2ccccc2C1 (stereo partly specified) = 1.85
• CN1C[C@@H](OC(=O)N2CCC(F)(F)C2)C[C@H](C(=O)NO)[C@H]1C(=O)N1CCN(c2ccccc2)CC1 = 1.70
• CN(C)C(=O)O[C@H]1C[C@H](C(=O)NO)[C@@H](C(=O)N2CCN(c3ccccc3)CC2)N(C)C1 = 1.49

Test item CN(C(=O)c1ccccc1)C1CN[C@H](C(=O)N2CC[C@H](c3ccccc3)C2)[C@@H](C(=O)NO)C1 (stereo partly specified) ; Receptor tyrosine-protein kinase erbB-2 (Homo sapiens, UniProt P04626); reported log10 of IC50 was 1.46

The compound O=C(NO)[C@H]1CC(OC(=O)N2CCCC2)CN[C@@H]1C(=O)N1CC=C(c2ccccc2)CC1 (stereo partly specified) on Receptor tyrosine-protein kinase erbB-2 (Homo sapiens, UniProt P04626): log10 of IC50 was 0.75

log10 of IC50 of CN1C[C@@H](OC(=O)N2CCCCCC2)C[C@H](C(=O)NO)[C@H]1C(=O)N1CCN(c2ccccc2)CC1 , assay on Receptor tyrosine-protein kinase erbB-2 (Homo sapiens, UniProt P04626), is 0.64
